For each entry below, report its inhibition at 0.0005 µM value.
molecular target: HIV-1 protease (Human immunodeficiency virus type 1 group M subtype B, UniProt P04585); test: Fluorogenic assay for screening inhibitors of HIV protease; conditions: pH 4.5, read-out: Percent Inhibition
The answer consists of two parts: a number and, after it, its unit.

Field inhibition at 0.0005 µM (entry CC(C)c1nc(COC(=O)N[C@H](C(=O)N[C@@H](Cc2ccccc2)[C@@H](O)CN(Cc2ccc(O)cc2)NC(=O)OC(C)(C)C)C(C)C)co1 ) reads 57%

Field inhibition at 0.0005 µM (entry CC(C)c1nc(CN(C)C(=O)N[C@H](C(=O)N[C@@H](Cc2ccccc2)[C@@H](O)CN(Cc2ccccc2)NC(=O)OC(C)(C)C)C(C)C)co1 ) reads 61%

Field inhibition at 0.0005 µM (entry CCc1cccc(CN(C)C(=O)N[C@H](C(=O)NN(Cc2ccccc2)C[C@H](O)[C@H](Cc2ccccc2)NC(=O)OCc2ccccc2)C(C)C)n1 ) reads 50%

Field inhibition at 0.0005 µM (entry CC(C)c1nc(CN(C)C(=O)N[C@H](C(=O)NN(Cc2ccccc2)C[C@H](O)[C@H](Cc2ccccc2)NC(=O)OCc2cncs2)C(C)C)co1 ) reads 78%

Field inhibition at 0.0005 µM (entry CC(C)c1nc(COC(=O)N[C@H](C(=O)N[C@@H](Cc2ccccc2)[C@@H](O)CN(Cc2ccc(F)cc2)NC(=O)OC(C)(C)C)C(C)C)co1 [Example 51D] ) reads 50%

Field inhibition at 0.0005 µM (entry CC(C)c1nc(CN(C)C(=O)N[C@H](C(=O)NN(Cc2ccoc2)C[C@H](O)[C@H](Cc2ccccc2)NC(=O)OCc2cncs2)C(C)C)cs1 ) reads 66%

Field inhibition at 0.0005 µM (entry CC(C)c1nc(CN(C)C(=O)N[C@H](C(=O)NN(Cc2ccccc2)C[C@H](O)[C@H](Cc2ccccc2)NC(=O)OCc2ccccc2)C(C)C)cs1 ) reads 73%

Field inhibition at 0.0005 µM (entry COc1ccc(CN(C[C@H](O)[C@H](Cc2ccccc2)NC(=O)[C@@H](NC(=O)OCc2ccccn2)C(C)C)NC(=O)OCc2cccnc2)cc1 ) reads 50%

Field inhibition at 0.0005 µM (entry CC(C)c1nc(CN(C)C(=O)N[C@H](C(=O)NN(Cc2cccc(O)c2)C[C@H](O)[C@H](Cc2ccccc2)NC(=O)OCc2cncs2)C(C)C)cs1 [Example 56B] ) reads 49%

Field inhibition at 0.0005 µM (entry CC(C)c1nc(CN(C)C(=O)N[C@H](C(=O)NN(Cc2ccccc2)C[C@H](O)[C@H](Cc2ccccc2)NC(=O)OCc2ccno2)C(C)C)co1 [Example 13D] ) reads 71%

Field inhibition at 0.0005 µM (entry CC(C)[C@H](NC(=O)OCc1ccccn1)C(=O)N[C@@H](Cc1ccccc1)[C@@H](O)CN(Cc1ccccc1)NC(=O)OCc1cccnc1 ) reads 60%

Field inhibition at 0.0005 µM (entry CC(C)c1nc(COC(=O)N[C@H](C(=O)NN(Cc2ccoc2)C[C@H](O)[C@H](Cc2ccccc2)NC(=O)OCc2cncs2)C(C)C)co1 [Example 49E] ) reads 75%

Field inhibition at 0.0005 µM (entry CC(C)c1nc(CN(C)C(=O)N[C@H](C(=O)NN(Cc2ccccc2)C[C@H](O)[C@H](Cc2ccccc2)NC(=O)OCc2cncs2)C(C)C)cs1 ) reads 77%

Field inhibition at 0.0005 µM (entry CC(C)c1nc(CN(C)C(=O)N[C@H](C(=O)NN(Cc2ccc(O)cc2)C[C@H](O)[C@H](Cc2ccccc2)NC(=O)OCc2cncs2)C(C)C)cs1 [Example 54B] ) reads 56%

Field inhibition at 0.0005 µM (entry CC(C)c1nc(CN(C)C(=O)N[C@H](C(=O)NN(Cc2ccccc2)C[C@H](O)[C@H](Cc2ccccc2)NC(=O)OCc2ccccc2)C(C)C)co1 ) reads 69%

Field inhibition at 0.0005 µM (entry CC(C)[C@H](NC(=O)OCc1ccccn1)C(=O)N[C@@H](Cc1ccccc1)[C@@H](O)CN(Cc1ccccc1)NC(=O)OC(C)(C)C ) reads 50%

Field inhibition at 0.0005 µM (entry COc1ccc(CN(C[C@H](O)[C@H](Cc2ccccc2)NC(=O)[C@@H](NC(=O)OCc2ccccn2)C(C)C)NC(=O)OC(C)(C)C)cc1 ) reads 44%

Field inhibition at 0.0005 µM (entry CC(C)c1nc(COC(=O)N[C@H](C(=O)NN(Cc2ccccc2)C[C@H](O)[C@H](Cc2ccccc2)NC(=O)OCc2cncs2)C(C)C)co1 ) reads 73%

Source: patent US5461067A
